target: Mannose-6-phosphate isomerase (Homo sapiens) (UniProt P34949); assay: inhibitors of human PMI, primary screen, biochemical, fluorescence intensity, coupled assay (AID 1209); conditions: purified PMI enzyme, at 20 µM, stronger effect = higher value;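 further: plate controls were DMSO vehicle for no effect and wells lacking substrate for full effect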
Sequence (P34949 whole entry, looked up): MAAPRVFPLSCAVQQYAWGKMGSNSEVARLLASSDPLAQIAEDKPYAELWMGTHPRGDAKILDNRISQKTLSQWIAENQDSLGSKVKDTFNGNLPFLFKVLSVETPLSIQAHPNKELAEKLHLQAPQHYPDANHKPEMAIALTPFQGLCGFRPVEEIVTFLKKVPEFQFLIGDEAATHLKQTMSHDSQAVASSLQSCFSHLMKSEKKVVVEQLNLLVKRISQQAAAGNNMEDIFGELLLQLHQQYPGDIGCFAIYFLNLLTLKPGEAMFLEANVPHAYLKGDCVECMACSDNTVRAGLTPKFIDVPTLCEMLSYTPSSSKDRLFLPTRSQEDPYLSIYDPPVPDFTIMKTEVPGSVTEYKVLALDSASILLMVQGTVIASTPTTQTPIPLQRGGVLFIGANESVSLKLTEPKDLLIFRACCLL
Hit rate of the full screen: of about 190,000 compounds, about 810 (0.43%) were called active. Only a selection was taken, and actives are over-represented in it overall.
inhibition listing for selected molecules.

Molecule	Target Entity	inhibition / %
CCC(=O)c1c[nH]c(C(=O)NCCCn2ccnc2)c1	Mannose-6-phosphate isomerase (Homo sapiens) (UniProt P34949)	10.2
CCOC(=O)CC1C(=O)NCCN1C(=O)c1ccc(F)cc1F (centres undefined)	Mannose-6-phosphate isomerase (Homo sapiens) (UniProt P34949)	-8.1
Cc1cc(N/N=C/c2ccc(Cl)cc2Cl)nc(NCc2ccccc2)n1	Mannose-6-phosphate isomerase (Homo sapiens) (UniProt P34949)	20.3
Cc1[nH]c(=S)[nH]c(=O)c1CCCO	Mannose-6-phosphate isomerase (Homo sapiens) (UniProt P34949)	12.6

====

target: Mannose-6-phosphate isomerase (Homo sapiens); test: inhibitors of human PMI, primary screen, biochemical, fluorescence intensity, coupled assay (AID 1209); details: purified PMI enzyme, at 20 µM, stronger effect = higher value;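 further: plate controls were DMSO vehicle for no effect and wells lacking substrate for full effect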
The whole screen tested about 190,000 compounds, of which about 810 (0.43%) were called active. Shown is part of a subset that was picked to be rich in actives.

Compound	inhibition [%]
CN1Cc2sc(N)c(C#N)c2CC1(C)C	-8.4
CCc1ccc(NC(=S)/N=C(\N)Nc2nc(C)c3cc(CC)ccc3n2)cc1	11.4
CCOCCCNC(=O)CCC(=O)NNc1nc2ccccc2c2nc(C)nn12	57.5
COc1ccc(-n2cnc3cc([N+](=O)[O-])ccc32)cc1	5.5
Cn1c(N)c(C(=O)NCc2ccccc2)sc1=S	12.3
CC(O)[C@@H](C(=O)N1CCNCC1)n1cc(CCCCN)nn1 (stereo partly drawn)	4
COC(=O)c1ccccc1NC(=O)c1sc(=S)n(C)c1N	-14.8
COCCCNC(=O)CCC(=O)NNc1nc2ccccc2c2nc(C)nn12	-1.5

====

inhibition listing for selected compounds.
target: Mannose-6-phosphate isomerase (Homo sapiens) (UniProt P34949); experiment: inhibitors of human PMI, primary screen, biochemical, fluorescence intensity, coupled assay (AID 1209); conditions: purified PMI enzyme, at 20 µM, stronger effect = higher value;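 further: plate controls were DMSO vehicle for no effect and wells lacking substrate for full effect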
In all, about 190,000 compounds went through this assay and about 810 (0.43%) were called active. Shown is part of a subset that was picked to be rich in actives.

Compound	inhibition, %
CCC(Sc1nc2ncnc(N)c2[nH]1)C(=O)O (centres undefined)	64.8
O=C(CCN1CCCCCC1)Nc1ccc(F)c(F)c1	-7.5
Cc1ccccc1NC(=O)C1c2cccc[n+]2CC(=O)N1Cc1ccc2c(c1)OCO2 (centres undefined)	-17.8
CCCC[n+]1c(C)sc2cc(OC)ccc21	16.5
Nc1ncnc2nc(SCc3ccccc3)[nH]c12	9.5
Cc1cccc(C)c1NC(=O)C1c2cccc[n+]2CC(=O)N1Cc1cccs1 (centres undefined)	-7.5
CCOC(=O)c1[nH]c2ccc(OC)cc2c1NC(=O)/C=C/c1ccc2c(c1)OCO2	-2.7
CC[n+]1c(C)sc2cc(C)ccc21	77
COc1ccc(C(=O)/C=C/C(=O)N(Cc2ccccc2OC)C(C(=O)NC2CCCCC2)c2ccncc2)c(O)c1 (centres undefined)	13.1

Sourced from PubChem BioAssay AID1209
